Measurement Target: T1, mouse nectin-4 protein expressed on the surface of HEK 293 cells (mouse, UniProt Q8R007 31-508)
T1 construct: whole, on cells
T1 sequence (looked up): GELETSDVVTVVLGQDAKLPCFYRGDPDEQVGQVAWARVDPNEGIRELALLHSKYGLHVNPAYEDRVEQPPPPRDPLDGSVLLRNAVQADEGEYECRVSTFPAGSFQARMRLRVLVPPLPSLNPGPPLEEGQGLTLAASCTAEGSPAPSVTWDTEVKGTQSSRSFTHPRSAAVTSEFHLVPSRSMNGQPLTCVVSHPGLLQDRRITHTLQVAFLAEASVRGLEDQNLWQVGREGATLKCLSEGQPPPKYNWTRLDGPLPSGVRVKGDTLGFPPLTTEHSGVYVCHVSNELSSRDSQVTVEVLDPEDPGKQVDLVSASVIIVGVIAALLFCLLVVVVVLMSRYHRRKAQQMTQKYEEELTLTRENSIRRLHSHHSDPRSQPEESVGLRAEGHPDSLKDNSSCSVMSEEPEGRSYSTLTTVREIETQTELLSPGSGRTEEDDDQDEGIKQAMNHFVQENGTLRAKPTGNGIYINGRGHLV
Test: flow cytometry, HEK 293 cells overexpressing the target
Catalogue of binders with associated Flow data
Readout Label: Flow data

{"Binder": "Enfortumab (antibody, V domains shown) VH: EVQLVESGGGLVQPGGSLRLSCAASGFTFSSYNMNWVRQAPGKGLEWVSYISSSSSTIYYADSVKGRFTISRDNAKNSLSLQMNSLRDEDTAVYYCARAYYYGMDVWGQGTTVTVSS VL: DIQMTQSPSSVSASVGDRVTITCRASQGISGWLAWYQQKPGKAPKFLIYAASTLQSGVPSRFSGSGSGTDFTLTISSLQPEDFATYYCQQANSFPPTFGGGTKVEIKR", "Readout Number": 3220}
{"Binder": "Nectin-4 7 E8H/7 E8L (recombinant chimeric antibody) (antibody, V domains shown) VH: QVQLKQSGPGLVQPSQSLSITCTVSGFSLATYGVHWVRQSPGKGLEWLGVIWSGGSTDYNAAFISRLSISKDNSKSQVFFKMNSLQADDTAIYYCARNSHWYFDVWGTGTTVTVSS VL: DIVMTQSQKFMSTSVGDRVSVTCKASQNVVTNVAWYQQKPGQSPKALIYSASYRYSGVPDRFTGSGSGTDFTLTISHVQSEDLAEYFCHQYNNYPYTFGGGTKLEIK", "Readout Number": 279}
{"Binder": "Nectin-4 Hybridoma 6C8H/6C8L (recombinant chimeric antibody) (antibody, V domains shown) VH: QVQLKQSGPGLVQPSQSLSITCTVSGFSLSTYGVHWVRQSPGKGLEWLGVIWSGGSTDYNAAFISRLTISKDNSKSQIFFKMNSLQADDTAIYYCARMMSWYFDVWGTGTTVTVSS VL: DIVMTQSQKFMSTSVGDRVSVTCKASQNVVTNVAWYQQKPGQSPKALIYSASYRYSGVPDRFTGSGSGTDFTLTISNVQSEDLAEYFCQQYNSYPLTFGAGTKLELK", "Readout Number": 194}
